- assay.details: Inhibition of alpha-glucosidase (unknown origin)
- Design: species or system Homo sapiens
Note to self: IC50 under 30 µM means rule met, ties and anything higher get rule not met.

Record CC(=O)n1c2c(c3ccccc31)Oc1nc(C)[nH]c(=O)c1C2c1cccc([N+](=O)[O-])c1 (centres undefined) : is its IC50 strictly below 30 µM?
rule not met

is_below(IC50, 30 µM) for COc1cccc(C2c3c(nc(C)[nH]c3=O)Oc3c2n(C(C)=O)c2ccccc32)c1 (centres undefined) ?
rule not met

Please determine if CC(=O)n1c2c(c3ccccc31)Oc1nc(C)[nH]c(=O)c1C2c1ccc(C)cc1 (centres undefined) is below 30 µM in terms of IC50.
rule not met

Record CC(=O)n1c2c(c3ccccc31)Oc1nc(C)[nH]c(=O)c1C2c1ccccc1 (centres undefined) : is its IC50 strictly below 30 µM?
rule not met

Is it true that IC50 reported for CC(=O)n1c2c(c3ccccc31)Oc1nc(C)[nH]c(=O)c1C2c1ccccc1[N+](=O)[O-] (centres undefined) is less than 30 µM?
rule not met

Check if IC50 falls below 30 µM for CC(=O)n1c2c(c3ccccc31)Oc1nc(C)[nH]c(=O)c1C2c1ccc(Br)cc1 (centres undefined) .
rule met

Dear reviewer, please state whether COc1ccc(C2c3c(nc(C)[nH]c3=O)Oc3c2n(C(C)=O)c2ccccc32)cc1 (centres undefined) has IC50 strictly beneath 30 µM.
rule met

Report whether reported IC50 is lower than 30 µM (strictly) for CC(=O)n1c2c(c3ccccc31)Oc1nc(C)[nH]c(=O)c1C2c1cccc(Br)c1 (centres undefined)
rule not met

hey, is IC50 for COc1ccc(C2c3c(nc(C)[nH]c3=O)Oc3c2n(C(C)=O)c2ccccc32)cc1[N+](=O)[O-] (centres undefined) lower than 30 µM or not?
rule met
